Reported cell viability values for the following compounds.
system: Calu-3; assay: cell viability relative to DMSO; higher = less toxic; details: 72 h; 1 nM
Attribute Measured: cell viability (%)

* O=C(NC(=O)c1c(F)cccc1F)Nc1cc(Cl)c(OC(F)(F)C(F)C(F)(F)F)cc1Cl (centres undefined) | 95.4
* Clc1ccc(N/N=C(\c2ccccc2)c2ccccn2)nc1 | 101
* Oc1cc2c(cc1O)[C@@H]1c3ccc(O)c(O)c3OC[C@]1(O)C2 | 97.1
* COc1cccc(CCc2ccccc2OCC[C@@H]2C[C@@H](O)CN2C)c1 | 101
* Cc1nn(C)c2c1C(c1ccc(C(F)(F)F)cc1)C(C#N)=C(N)O2 (centres undefined) | 98.7
* N#CCC1(n2cc(-c3ncnc4[nH]ccc34)cn2)CN(C2CCN(C(=O)c3ccnc(C(F)(F)F)c3F)CC2)C1 | 111
* Cc1[nH]nc(C(F)(F)F)c1Cc1sc2c(c1C(=O)N1C[C@](C)(O)CO1)c(=O)n(C)c(=O)n2C(C)C | 93.6
* CC(=O)NCCCCCC(=O)O | 98.9
* CC1(N)CCN(c2cnc(-c3cccc(Cl)c3Cl)c(N)n2)CC1 | 101

Entry source: the supplement of paper PMC13380429
